- ASSAY REMARKS: Pharmacokinetic (PK) study, plasma LC-MS
- Type: in vivo
- MEASUREMENT CONTEXT: mouse, plasma, intraperitoneal, 250 mg/Kg; CD-1 nude mice
METRIC: half-life

Kindly note the recorded half-life for COc1cc(-c2cccc(C(N)=O)c2)cc(C=O)c1O [Compound 2] , which is > 6 h
